# kon values compiled below
- tested.on: T1, human CD33 antigen (human, UniProt P20138 18-259, limits assumed)
- T1 construct: whole entry named; also called Siglec-3
- assay.comment: SPR (Biacore T200), 37 C, scFv-Fc, 10 uM MTX
readout.kind: kon (M⁻¹ s⁻¹)

{"binder": "P07_C04 scFv-Fc fusion (scFv, V domains shown, Tested as scFv-Fc fusion) VH: QVQLVESGGGLVQAGGSLRLSCAASRRSSRSWAMHWVRQAPGKGLEWVAVISYDGRLKYYADSVKGRFTISRDNAEYLVYLQMNSLRAEDTAVYYCAAEPDGEGTNGGLDIWGQGTLVTVSS VL: DIQMTQSPSSLSASVGDRVTITCRASQNISRYLNWYQQKPGKAPKLLIYSASSLQTGVPSRFSGSGSGTDFTLTISSLQPEDFATYYCQQSYSSGAFGQGTKVEIK", "value": 170000}
{"binder": "P01_B02 scFv-Fc fusion (scFv, V domains shown, Tested as scFv-Fc fusion) VH: QVQLVESGGGLVQAGGSLRLSCAASRRSSRSWAMHWVRQAPGKGLEWVAVISYDGRLKYYADSVKGRFTISRDNAEYLVYLQMNSLRAEDTAVYYCAAADWYSGGGDALDIWGQGTLVTVSS VL: DIQMTQSPSSLSASVGDRVTITCRASQTIYNYLNWYQQKPGKAPKLLIYGASNLQSGVPSRFSGSGSGTDFTLTISSLQPEDFATYYCQQTYSSPTFGQGTKVEIK", "value": 390000}
{"binder": "P01_C05 scFv-Fc fusion (scFv, V domains shown, Tested as scFv-Fc fusion) VH: QVQLVESGGGLVQAGGSLRLSCAASRRSSRSWAMHWVRQAPGKGLEWVAVISYDGRLKYYADSVKGRFTISRDNAEYLVYLQMNSLRAEDTAVYYCAAEQWGTNDGPDGGMDYWGQGTLVTVSS VL: DIQMTQSPSSLSASVGDRVTITCRASQTIGSHLNWYQQKPGKAPKLLIYGTSNLQSGVPSRFSGSGSGTDFTLTISSLQPEDFATYYCQQSYSSPLTFGQGTKVEIK", "value": 100000}
{"binder": "P02_D08 scFv-Fc fusion (scFv, V domains shown, Tested as scFv-Fc fusion) VH: QVQLVESGGGLVQAGGSLRLSCAASRRSSRSWAMHWVRQAPGKGLEWVAVISYDGRLKYYADSVKGRFTISRDNAEYLVYLQMNSLRAEDTAVYYCAAERGDGLDGNVGLDIWGQGTLVTVSS VL: DIQMTQSPSSLSASVGDRVTITCRASQSISKYLNWYQQKPGKAPKLLIYGASTLQSGVPSRFSGSGSGTDFTLTISSLQPEDFATYYCQQSYSSGTFGQGTKVEIK", "value": 88000}
{"binder": "P16_E06 scFv-Fc fusion (scFv, V domains shown, Tested as scFv-Fc fusion) VH: QVQLVESGGGLVQAGGSLRLSCAASRRSSRSWAMHWVRQAPGKGLEWVAVISYDGRLKYYADSVKGRFTISRDNAEYLVYLQMNSLRAEDTAVYYCAAEGGDYPGTSDGGLDIWGQGTLVTVSS VL: DIQMTQSPSSLSASVGDRVTITCRASQSISNYLNWYQQKPGKAPKLLIYGASSLQSGVPSRFSGSGSGTDFTLTISSLQPEDFATYYCQQSYSAGTFGQGTKVEIK", "value": 75000}
{"binder": "P08_C08 scFv-Fc fusion (scFv, V domains shown, Tested as scFv-Fc fusion) VH: QVQLVESGGGLVQAGGSLRLSCAASRRSSRSWAMHWVRQAPGKGLEWVAVISYDGRLKYYADSVKGRFTISRDNAEYLVYLQMNSLRAEDTAVYYCAAEGSGSTDGSGAIDVWGQGTLVTVSS VL: DIQMTQSPSSLSASVGDRVTITCRASQSIGSYLNWYQQKPGKAPKLLIYAASSLQSGVPSRFSGSGSGTDFTLTISSLQPEDFATYYCQQSYSSGSFGQGTKVEIK", "value": 94000}
{"binder": "P02_C02 scFv-Fc fusion (scFv, V domains shown, Tested as scFv-Fc fusion) VH: QVQLVESGGGLVQAGGSLRLSCAASRRSSRSWAMHWVRQAPGKGLEWVAVISYDGRLKYYADSVKGRFTISRDNAEYLVYLQMNSLRAEDTAVYYCAAEGGMGLDPWGQGTLVTVSS VL: DIQMTQSPSSLSASVGDRVTITCRASQTISSYLNWYQQKPGKAPKLLIYAASNLHSGVPSRFSGSGSGTDFTLTISSLQPEDFATYYCQQSYSSGTFGQGTKVEIK", "value": 110000}
